System: Saccharomyces cerevisiae BY4741 SeMeCo community
TEST_METHOD_NOTES: z-score of subpopulation abundance vs DMSO median, subpopulation auxotrophic for HLUM; higher = larger share of this subpopulation than in DMSO controls
REPORTED_CONDITIONS: 10 µM; 24 h; SM minimal medium; subpopulation (auxotrophy): HLUM
Structures can show the parent of a compound that is named as a salt.
PROPERTY_MEASURED: z-score of subpopulation abundance
# output: bare number, no unit

Oc1cccc2cccnc12 [8-Hydroxyquinoline] : 0.11
CN1C(=O)COc2c(C(=O)NC3CN4CCC3CC4)cc(Cl)cc21 (stereo not given) [Azasetron HCl] : 0.19
COc1ccc(C(CN(C)C)C2(O)CCCCC2)cc1 (stereo not given) [Venlafaxine HCl] : -0.19
C[N+]12CCC(CC1)C(OC(=O)C(O)(c1ccccc1)c1ccccc1)C2 (stereo not given) [Clidinium Bromide] : 0.51
Oc1cc(Cl)ccc1Oc1ccc(Cl)cc1Cl : 2.06
CN(C)[C@@H]1C(=O)C(C(N)=O)=C(O)[C@@]2(O)C(=O)C3=C(O)c4c(O)ccc(Cl)c4[C@@](C)(O)[C@H]3C[C@@H]12 [Chlortetracycline HCl] : 0.32
Cc1cc(C(C#N)c2ccc(Cl)cc2)c(Cl)cc1NC(=O)c1cc(I)cc(I)c1O (stereo not given) : 0.27
CC1(C)SC2C(N)C(=O)N2C1C(=O)O (stereo not given) : -0.72

// lookup z-score of subpopulation abundance for CN[C@@H]1[C@@H](O)[C@@H](O[C@@H]2[C@@H](O)[C@H](O[C@H]3O[C@H](CN)CC[C@H]3N)[C@@H](N)C[C@H]2N)OC[C@]1(C)O.CN[C@@H]1[C@@H](O)[C@@H](O[C@@H]2[C@@H](O)[C@H](O[C@H]3O[C@H]([C@@H](C)N)CC[C@H]3N)[C@@H](N)C[C@H]2N)OC[C@]1(C)O.CN[C@@H]1[C@@H](O)[C@@H](O[C@@H]2[C@@H](O)[C@H](O[C@H]3O[C@H]([C@@H](C)NC)CC[C@H]3N)[C@@H](N)C[C@H]2N)OC[C@]1(C)O [Gentamicin Sulfate]
0.46

Using the record for NCCc1c[nH]c2ccc(O)cc12 [Serotonin HCl] , report its z-score of subpopulation abundance.
0.3

Data request, read-out z-score of subpopulation abundance, for CCCCCCCCCCCCCCCC[n+]1ccccc1 [Cetylpyridinium Chloride]
49.4

// provenance: the supplement of paper PMC8975748
